Assay: Immunosuppressive activity in Balb/c mouse T cells assessed as inhibition of ConA-induced cell proliferation at 100 uM after 48 hrs by MTT assay relative to control
Format: functional
Entries and their inhibition at 100 µM values follow.
Value kind: inhibition at 100 µM (%)

| Smiles repr | Value kind | Meas value |
| --- | --- | --- |
| CC(=O)Oc1cc(C)c2c(c1C)C[C@H]([C@@H](C)C(=O)OCc1cn(-c3cccc([N+](=O)[O-])c3)nn1)CC2 | inhibition at 100 µM | 10.2 |
| CC(=O)Oc1cc(C)c2c(c1C)C[C@H]([C@@H](C)C(=O)OCc1cn(-c3ccccc3C#N)nn1)CC2 | inhibition at 100 µM | 6.48 |
| CC(=O)Oc1cc(C)c2c(c1C)C[C@H]([C@@H](C)C(=O)OCc1cn(-c3ccc(C(=O)c4ccccc4)cc3)nn1)CC2 | inhibition at 100 µM | 20 |
| CCCCCn1cc(COC(=O)[C@H](C)[C@@H]2CCc3c(C)cc(OC(C)=O)c(C)c3C2)nn1 | inhibition at 100 µM | 30.6 |

* * *

Entries and their inhibition at 100 µM values follow.
Assay: Immunosuppressive activity in Balb/c mouse T cells assessed as inhibition of ConA-induced cell proliferation at 100 uM after 48 hrs by MTT assay relative to control
Type: functional
Value kind: inhibition at 100 µM (%)

| Molecule | Value kind | Meas value |
| --- | --- | --- |
| CCCCn1cc(COC(=O)[C@H](C)[C@@H]2CCc3c(C)cc(OC(C)=O)c(C)c3C2)nn1 | inhibition at 100 µM | 41.3 |
| CC(=O)Oc1cc(C)c2c(c1C)C[C@H]([C@@H](C)C(=O)OCc1cn(-c3ccccc3F)nn1)CC2 | inhibition at 100 µM | 5.88 |
| CC1=C2[C@H]3OC(=O)[C@@H](C)[C@@H]3CC[C@@]2(C)C=CC1=O [SANTONIN] | inhibition at 100 µM | 6.09 |
| COc1ccc(-n2cc(COC(=O)[C@H](C)[C@@H]3CCc4c(C)cc(OC(C)=O)c(C)c4C3)nn2)cc1 | inhibition at 100 µM | 30.1 |
| CC(=O)Oc1cc(C)c2c(c1C)C[C@H]([C@@H](C)C(=O)OCc1cn(Cc3ccccc3)nn1)CC2 | inhibition at 100 µM | 44 |
| CC(=O)Oc1cc(C)c2c(c1C)C[C@H]([C@@H](C)C(=O)OCc1cn(Cc3ccc(Br)cc3)nn1)CC2 | inhibition at 100 µM | 37.4 |
| CC(=O)Oc1cc(C)c2c(c1C)C[C@H]([C@@H](C)C(=O)O)CC2 | inhibition at 100 µM | 75 |
| CC(=O)Oc1cc(C)c2c(c1C)C[C@H]([C@@H](C)C(=O)OCc1cn(-c3ccc4c(c3)OCO4)nn1)CC2 | inhibition at 100 µM | 32.4 |

* * *

Species on record: Mus musculus
Assay: Cytotoxicity against Balb/c mouse B cells assessed as decrease in cell viability at 100 uM after 48 hrs by MTT assay
Format: toxicity, cell-based

| Smiles repr | Activity |
| --- | --- |
| CC1=C2[C@H]3OC(=O)[C@@H](C)[C@@H]3CC[C@@]2(C)C=CC1=O | Non-Toxic |
| CC(=O)Oc1cc(C)c2c(c1C)C[C@H]([C@@H](C)C(=O)O)CC2 | Non-Toxic |
| CC(=O)Oc1cc(C)c2c(c1C)C[C@H]([C@@H](C)C(=O)OCc1cn(-c3cccc(C#N)c3)nn1)CC2 | Toxic |
| COc1cc(-n2cc(COC(=O)[C@H](C)[C@@H]3CCc4c(C)cc(OC(C)=O)c(C)c4C3)nn2)cc(OC)c1OC | Non-Toxic |
| CCCCn1cc(COC(=O)[C@H](C)[C@@H]2CCc3c(C)cc(OC(C)=O)c(C)c3C2)nn1 | Toxic |
| CC(=O)Oc1cc(C)c2c(c1C)C[C@H]([C@@H](C)C(=O)OCc1cn(-c3ccc(O)cc3C)nn1)CC2 | Toxic |
| CC(=O)Oc1cc(C)c2c(c1C)C[C@H]([C@@H](C)C(=O)OCc1cn(-c3ccc(CO)cc3)nn1)CC2 | Toxic |
| CC(=O)Nc1ccc(-n2cc(COC(=O)[C@H](C)[C@@H]3CCc4c(C)cc(OC(C)=O)c(C)c4C3)nn2)cc1 | Toxic |
| CC(=O)Oc1cc(C)c2c(c1C)C[C@H]([C@@H](C)C(=O)OCc1cn(-c3ccc(C#N)cc3)nn1)CC2 | Toxic |
| CC(=O)Oc1cc(C)c2c(c1C)C[C@H]([C@@H](C)C(=O)OCc1cn(-c3ccc(O)cc3)nn1)CC2 | Toxic |
| CC(=O)Oc1cc(C)c2c(c1C)C[C@H]([C@@H](C)C(=O)OCc1cn(-c3ccc(Cl)nc3)nn1)CC2 | Non-Toxic |
| CC(=O)Oc1cc(C)c2c(c1C)C[C@H]([C@@H](C)C(=O)OCc1cn(-c3ccc(CC#N)cc3)nn1)CC2 | Toxic |
| CC(=O)Oc1cc(C)c2c(c1C)C[C@H]([C@@H](C)C(=O)OCc1cn(-c3ccc(Cl)cc3)nn1)CC2 | Toxic |
| CC(=O)Oc1cc(C)c2c(c1C)C[C@H]([C@@H](C)C(=O)OCc1cn(-c3ccc(C(=O)c4ccccc4)cc3)nn1)CC2 | Toxic |
| CC(=O)Oc1cc(C)c2c(c1C)C[C@H]([C@@H](C)C(=O)OCc1cn(-c3ccccc3C#N)nn1)CC2 | Toxic |
